Reported IC50 ratio values follow for various binders
# target.or.system: T1, human TGR1 (human, UniProt Q9GZQ4 1-415)
# T1 construct: whole, on cells; Assayed as the membrane fraction of TGR1-expressing CHO cells (1.1 mg/mL protein); also called NMUR2; TGR1 receptor
# T1 sequence (Q9GZQ4 whole entry): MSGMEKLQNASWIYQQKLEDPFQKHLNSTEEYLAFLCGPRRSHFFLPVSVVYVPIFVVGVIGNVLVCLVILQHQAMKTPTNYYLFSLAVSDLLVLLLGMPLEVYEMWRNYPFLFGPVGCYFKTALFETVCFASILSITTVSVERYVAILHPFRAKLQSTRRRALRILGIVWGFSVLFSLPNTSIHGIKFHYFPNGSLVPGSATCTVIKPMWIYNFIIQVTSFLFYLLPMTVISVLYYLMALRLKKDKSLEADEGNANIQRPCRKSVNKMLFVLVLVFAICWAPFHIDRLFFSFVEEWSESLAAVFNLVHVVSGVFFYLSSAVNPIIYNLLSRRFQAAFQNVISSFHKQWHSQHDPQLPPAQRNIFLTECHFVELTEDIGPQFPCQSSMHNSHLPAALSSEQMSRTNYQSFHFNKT
# assay.procedure: displacement of 125I-NMU8 from human TGR1 CHO membrane fraction; IC50 relative to NMU-8;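 note: competitive binding on TGR1-expressing CHO cell membranes, with compounds tested as DMSO dilution series and incubated for 70 min at 25 °C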
Non-standard residues stand in square brackets, D forms with d. No end group written: not given here. *: point of attachment. Acetyl(2-(piperazin-1-yl)) = O=C(CN1CCNCC1)*; PEG 20 kDa = methoxypolyethylene glycol 20k; PEG 30 kDa = methoxypolyethylene glycol 30k; Arg(Me) = CNC(=N)NCCC[C@H](N)C(=O)O; Cha = N[C@@H](CC1CCCCC1)C(=O)O; NMeA = CN[C@@H](C)C(=O)O; βAla = NCCC(=O)O

- binder: "{PEG 30 kDa-βAla}-YFLFQPRN-NH2 (also called PEG-NH-β-Ala0,Gln5-NMU-8) [PEG30k-NH-β-Ala0,Gln5-NMU-8 (Compound A)]"
  recorded.result: "9.6 ratio to NMU-8 (=1)"

Problem: Which IC50 ratio reading was recorded for the binder [βAla]YFLFQPRN-NH2 (N-terminus assumed; SMILES CC(C)C[C@H](NC(=O)[C@H](Cc1ccccc1)NC(=O)[C@H](Cc1ccc(O)cc1)NC(=O)CCN)C(=O)N[C@@H](Cc1ccccc1)C(=O)N[C@@H](CCC(N)=O)C(=O)N1CCC[C@H]1C(=O)N[C@@H](CCCNC(=N)N)C(=O)N[C@@H](CC(N)=O)C(N)=O) [β-Ala0,Gln5-NMU-8 (Compound 1)] ?
Solution: 3.4 ratio to NMU-8 (=1)

Problem: Next: {PEG 20 kDa-Acetyl(2-(piperazin-1-yl))}-FWLFRARN-NH2 (also called PEG20k-NPipAc-Phe1, Trp2,Ala6-NMU-8) [PEG20k-NpipAc0,Phe1,Trp2,Ala6-NMU-8 (Compound K)]
Solution: 34 ratio to NMU-8 (=1)

Problem: Another binder: {PEG 30 kDa-βAla}-YYLFRPRN-NH2 (also called PEG-NH-β-Ala0,Tyr2-NMU-8) [PEG30k-NH-β-Ala0,Tyr2-NMU-8 (Compound E)]
Solution: 1.7 ratio to NMU-8 (=1)

Problem: Also, {mPEG 30 kDa-βAla}-YF[Cha]FRPRN-NH2 (X stands for Cha; also called PEG-NH-β-Ala0,Cha3-NMU-8) [PEG30k-NH-β-Ala0,Cha3-NMU-8 (Compound F)] please.
Solution: 11 ratio to NMU-8 (=1)

Problem: Also need {Acetyl(2-(piperazin-1-yl))}-YFRFRPRN-NH2 (SMILES N=C(N)NCCC[C@H](NC(=O)[C@H](Cc1ccccc1)NC(=O)[C@H](Cc1ccc(O)cc1)NC(=O)CN1CCNCC1)C(=O)N[C@@H](Cc1ccccc1)C(=O)N[C@@H](CCCNC(=N)N)C(=O)N1CCC[C@H]1C(=O)N[C@@H](CCCNC(=N)N)C(=O)N[C@@H](CC(N)=O)C(N)=O, also called NpipAc-Arg3-NMU-8) [2-(piperazin-1-yl)acetyl-Arg3-NMU8 (Compound 10)] , thanks.
Solution: 0.66 ratio to NMU-8 (=1)

Problem: Ok, now [βAla]YFLFRP[Arg(Me)]N-NH2 (N-terminus assumed; SMILES CNC(=N)NCCC[C@H](NC(=O)[C@@H]1CCCN1C(=O)[C@H](CCCNC(=N)N)NC(=O)[C@H](Cc1ccccc1)NC(=O)[C@H](CC(C)C)NC(=O)[C@H](Cc1ccccc1)NC(=O)[C@H](Cc1ccc(O)cc1)NC(=O)CCN)C(=O)N[C@@H](CC(N)=O)C(N)=O) [β-Ala0,Arg(Me)7-NMU-8 (Compound 14)]
Solution: 3.6 ratio to NMU-8 (=1)

Problem: Moving on to the next binder: {PEG 20 kDa-βAla}-YWLFR[NMeA]RN-NH2 [PEG20k-NH-β-Ala0,Trp2,NMeAla6-NMU-8 (Compound Q)]
Solution: 47 ratio to NMU-8 (=1)

Cited source for all entries: patent US20120094899A1
